Target sequence: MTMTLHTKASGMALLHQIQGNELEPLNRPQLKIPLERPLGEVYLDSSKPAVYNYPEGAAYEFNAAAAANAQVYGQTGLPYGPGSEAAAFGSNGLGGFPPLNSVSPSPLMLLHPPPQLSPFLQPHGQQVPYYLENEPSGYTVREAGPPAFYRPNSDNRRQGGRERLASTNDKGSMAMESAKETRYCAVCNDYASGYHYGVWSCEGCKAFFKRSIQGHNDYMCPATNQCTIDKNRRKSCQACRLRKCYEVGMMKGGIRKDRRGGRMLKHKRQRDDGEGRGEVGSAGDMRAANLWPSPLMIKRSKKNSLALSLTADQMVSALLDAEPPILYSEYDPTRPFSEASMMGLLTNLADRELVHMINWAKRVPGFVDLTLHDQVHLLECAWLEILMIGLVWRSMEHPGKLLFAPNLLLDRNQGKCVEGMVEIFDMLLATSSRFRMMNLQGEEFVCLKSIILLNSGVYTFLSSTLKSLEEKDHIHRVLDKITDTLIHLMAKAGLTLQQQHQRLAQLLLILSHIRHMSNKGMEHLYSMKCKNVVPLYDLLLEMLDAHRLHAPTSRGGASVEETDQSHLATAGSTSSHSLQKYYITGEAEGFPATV
Give pEC50 for every item shown.
Notebook: values listed as pEC50 are -log10 of the concentration (mol/L).

Entry CC1=CC[C@@]2(CO)CO[C@@H](c3ccc(O)cc3F)[C@@H]1C2 (stereo in doubt; (+)-29) , pEC50 reported as 7.68

Entry CC1=CC[C@]2(O)C[C@H]1[C@H](c1ccc(O)cc1)OC2(C)C (racemic) , pEC50 reported as 8.80

Entry CC1=CC[C@@H]2C[C@H]1[C@H](c1ccc(O)cc1)OC2(C)C (stereo in doubt) , pEC50 reported as 6.68

Entry CC1=CC[C@@]2(CO)CO[C@@H](c3ccc(O)c(Cl)c3)[C@@H]1C2 (racemic) , pEC50 reported as 7.44

Entry CC1=CC[C@@]2(CO)CO[C@@H](c3ccc(O)c(O)c3)[C@@H]1C2 (racemic) , pEC50 reported as 5.62

Entry CC1=CC[C@@]2(CO)CO[C@@H](c3ccc(O)cc3F)[C@@H]1C2 (racemic) , pEC50 reported as 7.41

Entry CC1=CC[C@@]2(CO)CO[C@@H](c3ccc(O)c(F)c3)[C@@H]1C2 (stereo in doubt; (+)-27) , pEC50 reported as 8.59

Entry CC1=CC[C@@]2(CO)CO[C@@H](c3ccc(O)c(F)c3)[C@]1(C)C2 (racemic) , pEC50 reported as 7.17

Entry CC1=CC[C@@]2(CO)CO[C@@H](c3ccc(O)cc3F)[C@@H]1C2 (stereo in doubt; (-)-30) , pEC50 reported as 7.72

Entry CC1=CC[C@@]2(CO)CO[C@@H](c3ccc(O)cc3Cl)[C@]1(C)C2 (racemic) , pEC50 reported as 7.37

Entry CC1=CC[C@@]2(CO)CO[C@@H](c3ccc(O)c(F)c3)[C@@H]1C2 (stereo in doubt; (-)-28) , pEC50 reported as 6.60

Entry CC1=CC[C@@]2(CO)CO[C@@H](c3ccc(O)cc3C)[C@@H]1C2 (racemic) , pEC50 reported as 7.04

Entry CC1=CC[C@@]2(CO)CO[C@@H](c3ccc(O)cc3F)[C@]1(C)C2 (racemic) , pEC50 reported as 7.30

Entry CC1=CC[C@@H]2C[C@H]1[C@H](c1ccc(O)cc1)OC2(C)C (stereo in doubt; (+)-31) , pEC50 reported as 6.69

Entry CC1=CC[C@]2(O)C[C@H]1[C@H](c1ccc(O)cc1Cl)OC2(C)C (racemic) , pEC50 reported as 9.00

Entry CC1=CC[C@@]2(CO)CO[C@@H](c3ccc(O)c(C)c3)[C@@H]1C2 (racemic) , pEC50 reported as 6.86

Entry CC1=CC[C@]2(O)C[C@H]1[C@H](c1ccc(O)cc1F)OC2(C)C (racemic) , pEC50 reported as 8.96
